system: MCF-7 (breast); assay: Radiometric growth inhibition of tumor cells, MCF-7; format: cell-based, human; set-up: concentration or dose not given beside the values; conditions: MCF-7; continuous exposure
READOUT TYPE: % SURVIVAL TUMOR (%)
Kindly provide the numeric value in % only, without the unit symbol.

// worked examples, % SURVIVAL TUMOR included
>>> print(df.to_string())
                                   molecule      readout_type  quantity_unit  result
0  O=c1[nH]c(=O)n([C@@H]2C[C@@H](O)[C@H](CO)O2)cc1F [2'-Deoxy-β-L-5-fluorouridine]  % SURVIVAL TUMOR              %    86.9
1  O=C(OC[C@@H]1O[C@H](n2ccc(=S)[nH]c2=O)C[C@H]1OC(=O)c1ccccc1)c1ccccc1  % SURVIVAL TUMOR              %    84.5
2  O=c1[nH]cnc2c1ncn2[C@H]1O[C@@H](CO)[C@H](O)[C@@H]1O [β-:-ribofuranosyl hypoxanthine, 9-β-L-Ribofuranosylhypoxanthine]  % SURVIVAL TUMOR              %    96.8
3    NC1=N[C@H]2O[C@@H](CO)[C@H](O)[C@H]2O1  % SURVIVAL TUMOR              %    88.8

Value lookup for % SURVIVAL TUMOR; key = O=c1[nH]cc(F)c(=O)[nH]1 [Example 5-FU, 5-fluorouracil, reference compound]
0.8

###

Test: In vitro survival of bone marrow control cells (radiometric BACTEC)
Assay type: cell-based
Details: bone marrow cells
From the text: CELL LINES: Eight different established human cell lines CALU (lung), COLO320 (colon), H578St (breast), HT-29 (colon), MCF-7 (breast), OM-1 (colon), SKLU (lung) and SKMES(lung), and two control cell lines (bone marrow and/or fibroblast cells) were utilized. All cell lines were obtained from the Tumor Cloning Laboratory, Institute for Drug Development, Cancer Therapy and Research Center, San Antonio, Tex. […]
Recorded measurements of viability, one per entry
Kindly provide the numeric value in % only, without the unit symbol.

// worked examples, viability included
                                   compound  readout_type  quantity_unit  result
0  O=c1ccn([C@@H]2O[C@@H](CO)[C@H](O)[C@@H]2O)c(=O)[nH]1     viability              %    96.6
1  Nc1ncnc2c1ncn2[C@H]1O[C@@H](CO)[C@H](O)[C@@H]1O     viability              %    91.2
2  O=c1ccn([C@H]2O[C@@H](CO)[C@H](O)[C@@H]2O)c(=O)[nH]1     viability              %     112
3  Cc1cn([C@@H]2C[C@@H](O)[C@H](CO)O2)c(=O)[nH]c1=O     viability              %     159
4  O=c1[nH]c(=O)n([C@@H]2C[C@@H](O)[C@H](CO)O2)cc1F     viability              %     109
5   O=c1ccn([C@@H]2CC[C@H](CO)O2)c(=O)[nH]1     viability              %    79.8

Value lookup for viability; key = `O=c1[nH]cnc2c1ncn2[C@@H]1C[C@@H](O)[C@H](CO)O1`
110

Also check O=c1[nH]cc(F)c(=O)[nH]1 [Example 5-FU, 5-fluorouracil, reference compound]
1.9

Also check `Nc1nc(S)c2ncn([C@H]3O[C@@H](CO)[C@H](O)[C@@H]3O)c2n1`
97.4

Also check `Nc1ncnc2c1ncn2[C@@H]1C[C@@H](O)[C@H](CO)O1`
64.9

###

Recorded measurements of viability, one per entry
experiment: In vitro survival of bone marrow control cells (radiometric BACTEC); format: cell-based; set-up: concentration or dose not given beside the values; settings: bone marrow control cells; continuous exposure; read-out: % SURVIVAL BONE MARROW
Kindly provide the numeric value in % only, without the unit symbol.

// worked examples, viability included
>>> df
                           structure_smiles  result
0  O=c1[nH]cnc2c1ncn2[C@H]1O[C@@H](CO)[C@H](O)[C@@H]1O     118
1  O=c1ccn2c(n1)O[C@H]1[C@@H](O)[C@H](CO)O[C@H]12    70.9
2  O=C(OC[C@@H]1O[C@H](n2ccc(=S)[nH]c2=O)C[C@H]1OC(=O)c1ccccc1)c1ccccc1     102

Would you kindly look at the next entry?
Value lookup for viability; key = `O=C(OC[C@@H]1O[C@@H](n2ccc(=S)[nH]c2=O)[C@@H](OC(=O)c2ccccc2)[C@H]1OC(=O)c1ccccc1)c1ccccc1`
85.9

###

Tested on: SKLU (lung)
Assay: Radiometric growth inhibition of tumor cells, SKLU
Format: cell-based, human
Design: concentration or dose not given beside the values
Details: SKLU; continuous exposure
Text: CELL LINES: Eight different established human cell lines CALU (lung), COLO320 (colon), H578St (breast), HT-29 (colon), MCF-7 (breast), OM-1 (colon), SKLU (lung) and SKMES(lung), and two control cell lines (bone marrow and/or fibroblast cells) were utilized. All cell lines were obtained from the Tumor Cloning Laboratory, Institute for Drug Development, Cancer Therapy and Research Center, San Antonio, Tex. […]
Outcome label depends on % SURVIVAL TUMOR relative to 80%: at/above gives true, below gives false.

Known results for compounds:
>>> df
                           structure_smiles  group_label
0  O=c1[nH]c(=O)n([C@@H]2O[C@@H](CO)[C@H](O)[C@@H]2O)cc1F        false
1  O=c1[nH]cnc2c1ncn2[C@H]1O[C@@H](CO)[C@H](O)[C@@H]1O         true
2  O=c1[nH]c(=O)n([C@H]2O[C@@H](CO)[C@H](O)[C@@H]2O)cc1F        false

Decide: % SURVIVAL TUMOR of `Nc1ccn([C@@H]2O[C@@H](CO)[C@H](O)[C@@H]2O)c(=O)n1` >= 80%?
true

###

assay: In vitro survival of bone marrow control cells (radiometric BACTEC); type: cell-based; parameters: concentration or dose not given beside the values; conditions: bone marrow control cells; continuous exposure; read-out: % SURVIVAL BONE MARROW
READOUT TYPE: viability
Number first, unit second.

// worked examples, viability included
COMPOUND	viability
NC1=N[C@@H]2O[C@@H](CO)[C@H](O)[C@@H]2O1	115%
O=c1[nH]c(=O)n([C@@H]2O[C@@H](CO)[C@H](O)[C@@H]2O)cc1F [α-L-ribofuranosyl-5-fluorouracil, 1-α-L-ribofuranosyl-5-fluorouracil]	94.6%
O=c1[nH]c(=O)n([C@H]2O[C@@H](CO)[C@H](O)[C@@H]2O)cc1F [β-L-ribofuranosyl-5-fluorouracil, 1-β-L-Ribofuranosyl-5-fluorouracil]	130%
Nc1ccn([C@@H]2O[C@@H](CO)[C@H](O)[C@@H]2O)c(=O)n1 [α-L-ribofuranosyl cytosine, 1-α-L-Ribofuranosylcytosine]	120%

Value lookup for viability; key = O=c1[nH]c(=S)ccn1[C@@H]1C[C@@H](O)[C@H](CO)O1 [2'-β-L-deoxy ribofuranosyl-4-thiouracil, 2'-Deoxy-β-L-4-thiouridine]
98.2%

Also check Nc1ccn([C@H]2O[C@@H](CO)[C@H](O)[C@@H]2O)c(=O)n1 [β-L-ribofuranosyl cytosine, 1-β-L-Ribofuranosylcytosine]
72.6%

Also check Nc1nc(O)c2ncn([C@H]3O[C@@H](CO)[C@H](O)[C@@H]3O)c2n1 [β-L-ribofuranosyl guanine, 9-β-L-Ribofuranosylguanine]
170%

Also check `NC1=N[C@H]2O[C@@H](CO)[C@H](O)[C@H]2O1`
110%

###

Recorded measurements of % SURVIVAL TUMOR, one per entry
test system: OM-1 (colon); assay: Radiometric growth inhibition of tumor cells, OM-1; type: cell-based, human; settings: human, om-1 colon tumor cells
Kindly provide the numeric value in % only, without the unit symbol.

                                   compound      readout_type  result
0  O=c1[nH]c(=O)n([C@@H]2C[C@@H](O)[C@H](CO)O2)cc1F [2'-Deoxy-β-L-5-fluorouridine]  % SURVIVAL TUMOR    85.2
1  O=c1ccn([C@H]2O[C@@H](CO)[C@H](O)[C@@H]2O)c(=O)[nH]1 [β-L-ribofuranosyl uracil, 1-β-L-Ribofuranosyluracil]  % SURVIVAL TUMOR    30.8
2  Nc1ncnc2c1ncn2[C@H]1O[C@@H](CO)[C@H](O)[C@@H]1O [β-L-ribofuranosyl adenine, 9-β-L-Ribofuranosyladenine]  % SURVIVAL TUMOR    50.9

Would you kindly look at the next entry?
Value lookup for % SURVIVAL TUMOR; key = O=c1[nH]cnc2c1ncn2[C@@H]1C[C@@H](O)[C@H](CO)O1 [2'-β-L-deoxy ribofuranosyl hypoxanthine, 2'-Deoxy-β-L-inosine]
83.1
